tested on: CCRF-CEM; test: Inhibition of CCRF-CEM (human leukemia) cell growth in vitro.; assay type: functional, cell-based
pIC50: −log10 of the molar value.
Listing of entries alongside the reported pIC50.

# count of solved cases: 8
C#CCN(Cc1ccc2nc(C)nc(O)c2c1)c1ccc(C#N)c(Cl)c1: < 5.17
C#CCN(Cc1ccc2nc(C)nc(O)c2c1)c1ccc([N+](=O)[O-])c(C(F)(F)F)c1: 4.98
C#CCN(Cc1ccc2nc(C)nc(O)c2c1)c1ccc(S(=O)(=O)c2ccccc2)cc1: 5.84
C#CCN(Cc1ccc2nc(C)nc(O)c2c1)c1ccccc1: < 4.97
C#CCN(Cc1ccc2nc(C)nc(O)c2c1)c1ccc([N+](=O)[O-])cc1: < 5.32
C#CCN(Cc1ccc2nc(C)nc(O)c2c1)c1cccc(C(F)(F)F)c1: < 5.37
C#CCN(Cc1ccc2nc(C)nc(O)c2c1)c1ccc(S(N)(=O)=O)cc1: < 4.59
C#CCN(Cc1ccc2nc(C)nc(S)c2c1)c1cccc(C(F)(F)F)c1: < 5.25

Write down pIC50 measured for item C#CCN(Cc1ccc2nc(C)nc(O)c2c1)c1ccc(C(=O)c2ccccc2)cc1
< 5.11

Write down pIC50 measured for item Cc1nc(O)c2cc(CNc3ccc(S(=O)(=O)c4ccccc4)cc3)ccc2n1
< 4.83

Write down pIC50 measured for item C#CCN(Cc1ccc2nc(C)nc(O)c2c1)c1ccc([S+]([O-])c2ccccc2)cc1 (centres undefined)
5.35

Write down pIC50 measured for item CCN(Cc1ccc2nc(C)nc(O)c2c1)c1ccc(C(=O)C(F)(F)F)cc1
< 5.40

Write down pIC50 measured for item C#CCN(Cc1ccc2nc(C)nc(O)c2c1)c1ccc(S(=O)(=O)N2CCN(C)CC2)cc1
< 5.00

Write down pIC50 measured for item C#CCN(Cc1ccc2nc(C)nc(O)c2c1)c1cccc(Br)c1
< 5.24

###

molecular target: Thymidylate synthase (Homo sapiens) (UniProt P04818)
Sequence (P04818 2-313 limits assumed): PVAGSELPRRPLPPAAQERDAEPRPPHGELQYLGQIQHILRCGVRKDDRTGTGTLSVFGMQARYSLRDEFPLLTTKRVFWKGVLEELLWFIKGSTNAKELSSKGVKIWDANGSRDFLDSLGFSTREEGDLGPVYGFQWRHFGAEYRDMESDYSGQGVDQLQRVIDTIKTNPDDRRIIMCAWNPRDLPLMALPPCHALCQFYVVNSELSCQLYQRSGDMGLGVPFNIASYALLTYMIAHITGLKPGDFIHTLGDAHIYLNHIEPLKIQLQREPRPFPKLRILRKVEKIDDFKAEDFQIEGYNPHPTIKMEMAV
Listing of entries alongside the reported Kii.
// units = µM; emit number, no label

# count of solved cases: 7
C#CCN(Cc1ccc2nc(C)nc(O)c2c1)c1cccc(C(C)O)c1 (stereo not drawn): 3.6
C#CCN(Cc1ccc2nc(C)nc(O)c2c1)c1ccc([N+](=O)[O-])cc1: 0.098
C#CCN(Cc1ccc2nc(C)nc(S)c2c1)c1cccc(C(F)(F)F)c1: 2.3
C#CCN(Cc1ccc2nc(C)nc(O)c2c1)c1cccc(C#C)c1: 0.68
C#CCN(Cc1ccc2nc(C)nc(O)c2c1)c1ccc(Cl)cc1: 0.77
C#CCN(Cc1ccc2nc(C)nc(O)c2c1)c1cccc(CO)c1: 1.2
C#CCN(Cc1ccc2nc(C)nc(O)c2c1)c1ccc(C#N)cc1: 0.17

Here's the next entry for you.
Look up and report Kii, with Thymidylate synthase (Homo sapiens) (UniProt P04818) as system, for C#CCN(Cc1ccc2nc(C)nc(O)c2c1)c1ccc(S(N)(=O)=O)c(C(F)(F)F)c1
0.07

###

Measured Kis (Thymidylate synthase (Homo sapiens))
// units = µM; emit number, no label

# count of solved cases: 10
C#CCN(Cc1ccc2nc(C)nc(O)c2c1)c1ccc(C#N)c(Cl)c1: 0.037
C#CCN(Cc1ccc2nc(C)nc(O)c2c1)c1ccc(S(N)(=O)=O)c(C(F)(F)F)c1: 0.036
CCN(Cc1ccc2nc(C)nc(O)c2c1)c1ccc(S(=O)(=O)c2ccccc2)cc1: 0.034
C#CCN(Cc1ccc2nc(C)nc(O)c2c1)c1ccc(C(=O)c2ccccc2)cc1: 0.11
C#CCN(Cc1ccc2nc(C)nc(O)c2c1)c1ccc(C#N)c(C(F)(F)F)c1: 0.081
C#CCN(Cc1ccc2nc(C)nc(O)c2c1)c1ccc(S(=O)(=O)N2CCOCC2)cc1: 0.045
C#CCN(Cc1ccc2nc(C)nc(O)c2c1)c1ccc(S(=O)(=O)N2CCNCC2)cc1: 0.063
C#CCN(Cc1ccc2nc(C)nc(O)c2c1)c1cccc(C)c1: 1.4
C#CCN(Cc1ccc2nc(C)nc(O)c2c1)c1cccc(C(C)O)c1 (stereo not drawn): 1.7
C#CCN(Cc1ccc2nc(C)nc(O)c2c1)c1ccc(C#N)cc1: 0.076

Look up and report Kis, with Thymidylate synthase (Homo sapiens) as system, for C#CCN(Cc1ccc2nc(C)nc(O)c2c1)c1ccc([N+](=O)[O-])c(C(F)(F)F)c1
0.074

Look up and report Kis, with Thymidylate synthase (Homo sapiens) as system, for C#CCN(Cc1ccc2nc(C)nc(O)c2c1)c1ccc(S(N)(=O)=O)cc1
0.064

###

test system: GC3/MTK-; assay: Activity for growth inhibition in tissue culture of thymidine kinase-deficient human adenocarcinoma cell line (GC3/M TK-)value in parenthesis indicates % inhibition; assay type: functional, cell-based
Listing of entries alongside the reported IC50.

C#CCN(Cc1ccc2nc(C)nc(O)c2c1)c1cccc(C)c1: > 5 µM
C#CCN(Cc1ccc2nc(C)nc(O)c2c1)c1ccc(S(=O)(=O)N2CCNCC2)cc1: > 50 µM
C#CCN(Cc1ccc2nc(C)nc(S)c2c1)c1cccc(C(F)(F)F)c1: > 5.6 µM
C#CCN(Cc1ccc2nc(C)nc(O)c2c1)c1ccc(S(=O)(=O)C(F)(F)F)cc1: > 2.75 µM
Cc1nc(O)c2cc(CN(C)c3ccc(Cc4ccccc4)cc3)ccc2n1: > 5 µM

Here's the next entry for you.
Write down IC50 measured for item C#CCN(Cc1ccc2nc(C)nc(O)c2c1)c1cccc(CC)c1
> 5 µM

###

Listing of entries alongside the reported log10(Kis).
molecular target: Thymidylate synthase (Escherichia coli) (UniProt C3SWJ7)
Sequence (C3SWJ7 1-264): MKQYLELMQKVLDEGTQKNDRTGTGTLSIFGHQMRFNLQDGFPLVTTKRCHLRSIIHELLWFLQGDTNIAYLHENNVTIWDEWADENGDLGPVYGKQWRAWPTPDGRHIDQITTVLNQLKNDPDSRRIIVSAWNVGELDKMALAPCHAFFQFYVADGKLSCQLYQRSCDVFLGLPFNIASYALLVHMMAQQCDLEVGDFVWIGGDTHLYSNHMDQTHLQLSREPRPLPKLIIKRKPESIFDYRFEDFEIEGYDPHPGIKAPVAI
The base-10 logarithm of Kis, taken with Kis in µM, is what appears here.

# count of solved cases: 4
C#CCN(Cc1ccc2nc(C)nc(O)c2c1)c1ccc(S(=O)(=O)N2CCOCC2)cc1: -1.41
C#CCN(Cc1ccc2nc(C)nc(O)c2c1)c1cccc(CC)c1: 0.70
C#CCN(Cc1ccc2nc(C)nc(O)c2c1)c1cccc(C#C)c1: -0.07
CCN(Cc1ccc2nc(C)nc(O)c2c1)c1ccc(S(=O)(=O)c2ccccc2)cc1: -1.11

Here's the next entry for you.
Look up and report log10(Kis), with Thymidylate synthase (Escherichia coli) (UniProt C3SWJ7) as system, for C#CCN(Cc1ccc2nc(C)nc(O)c2c1)c1ccc(S(=O)(=O)N2CCN(C)CC2)cc1
-0.89

###

Measured Kis (Thymidylate synthase (Homo sapiens))
// units = µM; emit number, no label

# count of solved cases: 4
C#CCN(Cc1ccc2nc(C)nc(O)c2c1)c1ccc([N+](=O)[O-])cc1: 0.056
C#CCN(Cc1ccc2nc(C)nc(O)c2c1)c1cccc(CO)c1: 0.62
C#CCN(Cc1ccc2nc(C)nc(O)c2c1)c1ccc([S+]([O-])c2ccccc2)cc1 (stereo not given): 0.061
C#CCN(Cc1ccc2nc(C)nc(O)c2c1)c1ccc(S(=O)(=O)N2CCN(C)CC2)cc1: 0.083

Here's the next entry for you.
Look up and report Kis, with Thymidylate synthase (Homo sapiens) as system, for C#CCN(Cc1ccc2nc(C)nc(S)c2c1)c1cccc(C(F)(F)F)c1
1.3

###

target: Thymidylate synthase (Homo sapiens)
Use Kii to assign classes; range list: lower (below 0.09 µM), middle (0.09 µM to below 0.2 µM), upper (0.2 µM or more)

The examples below pair each entry with its known result.
C#CCN(Cc1ccc2nc(C)nc(O)c2c1)c1ccc([N+](=O)[O-])c(C(F)(F)F)c1: middle
C#CCN(Cc1ccc2nc(C)nc(O)c2c1)c1cccc(CC)c1: upper
C#CCN(Cc1ccc2nc(C)nc(O)c2c1)c1ccc(C(=O)NC(CCC(=O)O)C(=O)O)cc1 (stereo not given): lower
C#CCN(Cc1ccc2nc(C)nc(O)c2c1)c1cccc(I)c1: upper
CCN(Cc1ccc2nc(C)nc(O)c2c1)c1ccc(S(=O)(=O)c2ccccc2)cc1: middle

Category lookup for the molecule C#CCN(Cc1ccc2nc(C)nc(O)c2c1)c1ccc(C#N)c(Cl)c1
lower

Category lookup for the molecule C#CCN(Cc1ccc2nc(C)nc(O)c2c1)c1ccc(S(=O)(=O)NCC(=O)O)c(C(F)(F)F)c1
lower

Category lookup for the molecule C#CCN(Cc1ccc2nc(C)nc(O)c2c1)c1ccc(C(=O)c2ccccc2)cc1
middle

Category lookup for the molecule C#CCN(Cc1ccc2nc(C)nc(O)c2c1)c1cccc(Br)c1
upper

###

Measured Kii (Thymidylate synthase (Escherichia coli) (UniProt C3SWJ7))

# count of solved cases: 6
C#CCN(Cc1ccc2nc(C)nc(O)c2c1)c1ccc([S+]([O-])c2ccccc2)cc1 (configuration not stated): 0.55 µM
C#CCN(Cc1ccc2nc(C)nc(O)c2c1)c1ccc(S(=O)(=O)C(F)(F)F)cc1: 0.064 µM
C#CCN(Cc1ccc2nc(C)nc(O)c2c1)c1ccc(C#N)cc1: 0.33 µM
C#CCN(Cc1ccc2nc(C)nc(O)c2c1)c1ccc(C#N)c(Cl)c1: 0.1 µM
C#CCN(Cc1ccc2nc(C)nc(O)c2c1)c1cccc(C(C)O)c1 (configuration not stated): 8.3 µM
CCN(Cc1ccc2nc(C)nc(O)c2c1)c1ccc(C(=O)C(F)(F)F)cc1: 1 µM

Look up and report Kii, with Thymidylate synthase (Escherichia coli) (UniProt C3SWJ7) as system, for C#CCN(Cc1ccc2nc(C)nc(O)c2c1)c1ccc(S(=O)(=O)NCC(=O)O)c(C(F)(F)F)c1
0.015 µM

Look up and report Kii, with Thymidylate synthase (Escherichia coli) (UniProt C3SWJ7) as system, for C#CCN(Cc1ccc2nc(C)nc(O)c2c1)c1ccc(S(=O)(=O)N2CCNCC2)cc1
0.28 µM

Look up and report Kii, with Thymidylate synthase (Escherichia coli) (UniProt C3SWJ7) as system, for Cc1nc(O)c2cc(CNc3ccc(S(=O)(=O)c4ccccc4)cc3)ccc2n1
17 µM

Look up and report Kii, with Thymidylate synthase (Escherichia coli) (UniProt C3SWJ7) as system, for Cc1nc(O)c2cc(CN(C)c3ccc(Cc4ccccc4)cc3)ccc2n1
> 1 µM

Look up and report Kii, with Thymidylate synthase (Escherichia coli) (UniProt C3SWJ7) as system, for C#CCN(Cc1ccc2nc(C)nc(O)c2c1)c1cccc(C)c1
16 µM

Look up and report Kii, with Thymidylate synthase (Escherichia coli) (UniProt C3SWJ7) as system, for C#CCN(Cc1ccc2nc(C)nc(O)c2c1)c1cccc(C#C)c1
2.7 µM

Look up and report Kii, with Thymidylate synthase (Escherichia coli) (UniProt C3SWJ7) as system, for C#CCN(Cc1ccc2nc(C)nc(O)c2c1)c1cccc(CC)c1
24 µM

Look up and report Kii, with Thymidylate synthase (Escherichia coli) (UniProt C3SWJ7) as system, for C#CCN(Cc1ccc2nc(C)nc(O)c2c1)c1cccc(Br)c1
3.3 µM

Look up and report Kii, with Thymidylate synthase (Escherichia coli) (UniProt C3SWJ7) as system, for C#CCN(Cc1ccc2nc(C)nc(O)c2c1)c1ccc([N+](=O)[O-])c(C(F)(F)F)c1
0.073 µM
